Test: Half-life in buffer
Assay type: physicochemical
Parameter: half-life

Entry CC[C@H](C)[C@@H]1C(=O)O[C@H]1C(=O)N[C@H](C(=O)N[C@@H](COCc1ccccc1)C(=O)OCc1ccccn1)C(C)C has what half-life? > 10 min

----------
I'd be grateful if you could share measured IC50 for these entries.
Target: β5 subunit of human proteasomes (hβ5) (Homo sapiens)
Construct: endogenous in cells
Sequence (P28074 60-263): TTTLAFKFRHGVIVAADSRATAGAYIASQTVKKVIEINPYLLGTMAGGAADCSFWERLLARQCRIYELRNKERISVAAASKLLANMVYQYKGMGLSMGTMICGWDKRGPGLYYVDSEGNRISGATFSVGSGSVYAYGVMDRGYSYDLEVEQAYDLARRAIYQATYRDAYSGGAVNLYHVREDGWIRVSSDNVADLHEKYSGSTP
Assay: Proteasome chymotrypsin-like (β5) activity in crude Jurkat cell lysate, Suc-LLVY-AMC substrate
Conditions: read-out: proteasome inhibition IC50 ± s.d., hβ5
Respond with the bare value in nM.

Entry CC[C@H](C)[C@@H]1C(=O)O[C@H]1C(=O)N[C@H](C(=O)N[C@@H](COCc1ccccc1)C(=O)OCc1ccccn1)C(C)C has what IC50? 7.1

Could you do the same for CC[C@H](C)[C@@H]1C(=O)O[C@H]1C(=O)N[C@H](C(=O)N[C@@H](COCc1ccccc1)C(=O)NCc1cc(OC)cc(OC)c1)C(C)C , please? 4.5

Could you do the same for CC[C@H](C)[C@@H]1C(=O)O[C@H]1C(=O)N[C@H](C(=O)N[C@@H](COCc1ccccc1)C(=O)OCc1cccnc1)C(C)C , please? 3.3

Could you do the same for CC[C@H](C)[C@@H]1C(=O)O[C@H]1C(=O)N[C@H](C(=O)N[C@@H](COCc1ccccc1)C(=O)NCc1ccccc1)C(C)C , please? 2.3

Could you do the same for CC[C@H](C)[C@@H]1C(=O)O[C@H]1C(=O)N[C@H](C(=O)N[C@@H](COCc1ccccc1)C(=O)OCc1cnccn1)C(C)C , please? 13.7

Could you do the same for CC[C@H](C)[C@@H]1C(=O)O[C@H]1C(=O)N[C@H](C(=O)N[C@@H](COCc1ccccc1)C(=O)OCc1ccncc1)C(C)C , please? 4

Could you do the same for CC[C@H](C)[C@@H]1C(=O)O[C@H]1C(=O)N[C@H](C(=O)N[C@@H](COCc1ccccc1)C(=O)NCc1ccncc1)C(C)C , please? 3

Could you do the same for CC[C@H](C)[C@@H]1C(=O)O[C@H]1C(=O)N[C@H](C(=O)N[C@@H](COCc1ccccc1)C(=O)OCc1ccc(Cl)cc1)C(C)C , please? 18.2

Could you do the same for CC[C@H](C)[C@@H]1C(=O)O[C@H]1C(=O)N[C@H](C(=O)N[C@@H](COCc1ccccc1)C(=O)OCc1ccc(OC)cc1)C(C)C , please? 18.8

Could you do the same for CC[C@H](C)[C@@H]1C(=O)O[C@H]1C(=O)N[C@H](C(=O)N[C@@H](COCc1ccccc1)C(=O)NCc1ccccn1)C(C)C , please? 4.1

Could you do the same for CC[C@H](C)[C@@H]1C(=O)O[C@H]1C(=O)N[C@H](C(=O)N[C@@H](COCc1ccccc1)C(=O)NCc1cnccn1)C(C)C , please? 8.4

Could you do the same for CC[C@H](C)[C@@H]1C(=O)O[C@H]1C(=O)N[C@H](C(=O)N[C@@H](COCc1ccccc1)C(=O)NCc1cccnc1)C(C)C , please? 3.9
